assayComment: cell viability in Huh7 cells, primary screen, cytotoxicity control for HCV replication inhibitor project, CellTiter-Glo luminescence, basal, 48 h (AID 1143);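 note: Huh7 hepatoma cells carrying a hepatitis C replication reporter with no stimulus; test concentration not given here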
reportedConditions: Huh7 HCV replicon, higher = more signal, called active from +8 up or from −8 down

| inputSmiles | z-score |
| --- | --- |
| CCOC(=O)CCN1C(=O)[C@H]2[C@H]3[C@H](O)[C@H](O)CC(=NOCC(C)C)[C@@H]3CC[C@H]2C1=O | -1.76 |
| COc1ccc(COC(=O)NN=C2C[C@@H](O)[C@@H](O)[C@@H]3[C@@H]4C(=O)N(Cc5ccccc5)C(=O)[C@@H]4CC[C@@H]23)cc1 | -0.19 |
| O=C1C=C[C@@H](O)[C@@H]2[C@@H]3C(=O)N(c4cccc(Oc5ccccc5)c4)C(=O)[C@@H]3CC[C@@H]12 | -3.63 |
| COc1ccc(O[C@H]2C=C[C@@H](c3ccccc3)O[C@@H]2CON=C(C)CCN2CCCc3nc(C)c(C)cc32)cc1 | -0.381 |
| CC(C)(C)N1C(=O)[C@H]2[C@@H]3C(=CC[C@H]2C1=O)C(=O)[C@H]1O[C@H]1[C@H]3O | -6.85 |
| COC(=O)[C@@H]1CC[C@H](C)[C@@H](c2ccc(C)cc2)N1C(=O)c1ccc(C=NOC[C@H]2O[C@H](c3ccccc3)C=C[C@@H]2Oc2ccc(OC)cc2)cc1 | -0.814 |
| O=C1C2=CC[C@H]3C(=O)N(C4CCCCC4)C(=O)[C@H]3[C@H]2[C@H](O)[C@@H]2O[C@H]12 | -8.35 |
